Data origin, for the record: the Kinase Knowledgebase extract (Sharma et al. 2016)

target: MAPK14 (human) (UniProt Q16539)
Sequence (Q16539 whole entry, looked up): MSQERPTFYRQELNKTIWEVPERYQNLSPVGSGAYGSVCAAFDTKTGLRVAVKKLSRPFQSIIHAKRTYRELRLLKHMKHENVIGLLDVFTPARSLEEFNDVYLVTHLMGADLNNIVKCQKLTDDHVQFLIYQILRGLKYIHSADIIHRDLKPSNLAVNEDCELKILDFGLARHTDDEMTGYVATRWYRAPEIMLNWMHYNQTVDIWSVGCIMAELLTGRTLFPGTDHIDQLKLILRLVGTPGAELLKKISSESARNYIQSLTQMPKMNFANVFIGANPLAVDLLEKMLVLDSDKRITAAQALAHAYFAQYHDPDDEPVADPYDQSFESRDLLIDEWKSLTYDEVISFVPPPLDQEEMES
experiment: Inhibition of LPS Stimulated TNF Production by U937 Cells
run-conditions: concentration not given here
Decide using inhibition: a value greater than or equal to 20% is 1 (yes), a smaller one is 0 (no).

// known answers, use as guide
CCCCOc1ccc(S(=O)(=O)NCCc2[nH]nc(-c3ccc(F)cc3)c2-c2ccncc2)cc1 : 1 (yes)
Cc1ccc(F)cc1S(=O)(=O)NCc1[nH]nc(-c2ccc(F)cc2)c1-c1ccncc1 : 1 (yes)
O=C(NCCc1[nH]nc(-c2ccc(F)cc2)c1-c1ccncc1)Nc1cc(Cl)cc(Cl)c1 : 1 (yes)

For this compound, is measured inhibition 20% or higher? "O=C(NCc1[nH]nc(-c2ccc(F)cc2)c1-c1ccncc1)c1cccc(C(F)(F)F)c1"
0 (no)

For this compound, is measured inhibition 20% or higher? "O=C(NCc1[nH]nc(-c2ccc(F)cc2)c1-c1ccncc1)c1cccc(OC(F)(F)F)c1"
1 (yes)

For this compound, is measured inhibition 20% or higher? "C[C@H](NS(=O)(=O)C[C@]12CC[C@@H](CC1=O)C2(C)C)c1[nH]nc(-c2ccc(F)cc2)c1-c1ccncc1"
1 (yes)

For this compound, is measured inhibition 20% or higher? "C[C@H](NC(=O)c1cccc(Br)c1)c1[nH]nc(-c2ccc(F)cc2)c1-c1ccncc1"
1 (yes)

For this compound, is measured inhibition 20% or higher? "Cc1cc(C)c(C(=O)N[C@@H](C)c2[nH]nc(-c3ccc(F)cc3)c2-c2ccncc2)c(C)c1"
1 (yes)

For this compound, is measured inhibition 20% or higher? "CC(=O)NCCNC(=O)NCCCc1[nH]nc(-c2ccc(F)cc2)c1-c1ccncc1"
0 (no)

For this compound, is measured inhibition 20% or higher? "CC(C)S(=O)(=O)NCCc1[nH]nc(-c2ccc(F)cc2)c1-c1ccncc1"
1 (yes)

For this compound, is measured inhibition 20% or higher? "C[C@@H](NS(=O)(=O)c1ccccc1Cl)c1[nH]nc(-c2ccc(F)cc2)c1-c1ccncc1"
1 (yes)
